Source: PubChem BioAssay AID463082

- testedOn: Platelet-activating factor acetylhydrolase (Homo sapiens) (UniProt Q13093)
- Sequence (Q13093 whole entry, looked up): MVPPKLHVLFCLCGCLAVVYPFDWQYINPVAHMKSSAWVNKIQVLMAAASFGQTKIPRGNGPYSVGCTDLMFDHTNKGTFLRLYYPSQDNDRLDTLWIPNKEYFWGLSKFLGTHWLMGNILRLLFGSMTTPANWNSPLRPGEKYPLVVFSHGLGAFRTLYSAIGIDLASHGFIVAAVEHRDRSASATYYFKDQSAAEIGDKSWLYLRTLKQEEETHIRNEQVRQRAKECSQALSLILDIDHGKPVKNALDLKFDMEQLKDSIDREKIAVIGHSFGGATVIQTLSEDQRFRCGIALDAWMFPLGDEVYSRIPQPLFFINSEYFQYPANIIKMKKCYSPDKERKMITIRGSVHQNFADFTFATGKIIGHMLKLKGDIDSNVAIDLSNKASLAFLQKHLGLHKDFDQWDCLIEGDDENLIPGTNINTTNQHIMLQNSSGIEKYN
- runDescription: pPAFAH enzyme inhibitors, primary screen, biochemical, fluorescence polarization, human (AID 463082);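 also: inhibitors block binding of the rhodamine activity-based probe so polarization drops; 0% = enzyme with DMSO and 100% = wells lacking pPAFAH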
- testContext: recombinant pPAFAH, FP-rhodamine probe fluorescence polarization; at 3.39 µM; stronger effect = higher value
In all, about 330,000 compounds went through this assay and about 4,900 (1.5%) were called active. The sample as a whole holds a higher share of actives than the screen did.
measuredProperty: inhibition

CC(=O)N(C)c1ccc(NC(=O)C(F)(F)F)cc1 = -4.77% (inactive)
Cc1nn(CC(=O)Nc2ccc3c(c2)OCO3)c(C)c1[N+](=O)[O-] = -3.11% (inactive)
CC(C)CNC(=O)C(=O)Nc1ccc(N(C)C)cc1 = -8.71% (inactive)

Q: Which measured inhibition value corresponds to COc1ccc(CN2CC(C(=O)NCCN3CCN(c4ccccc4F)CC3)CC2=O)cc1 (stereo unspecified) ?
Result: -3.16% (inactive)

Q: inhibition lookup needed for `CCOC(=O)C1CCN(Cc2coc3ccc(Cl)cc3c2=O)CC1` , thanks.
Result: -3.13% (inactive)

Q: Suppose we examine the molecule `Cc1ccccc1Nc1nnc(SCC(=O)c2cc3ccccc3o2)s1` ; what inhibition value has been reported?
Result: 2.17% (inactive)

---

- testedOn: Platelet-activating factor acetylhydrolase (Homo sapiens)
- runDescription: pPAFAH enzyme inhibitors, primary screen, biochemical, fluorescence polarization, human (AID 463082);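 also: inhibitors block binding of the rhodamine activity-based probe so polarization drops; 0% = enzyme with DMSO and 100% = wells lacking pPAFAH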
- testContext: recombinant pPAFAH, FP-rhodamine probe fluorescence polarization; at 3.39 µM; stronger effect = higher value
Out of some 330,000 compounds screened, about 4,900 (1.5%) were called active. Only a selection was taken, and actives are over-represented in it overall.
measuredProperty: inhibition (%)
State the answer as a number, implicitly in %.

COC/C=C/C1=CC2=CC(=O)C(C)(OC(=O)CCC(=O)OC)C(=O)C2=CO1 (configuration not stated) = 32.3
COC(=O)CCCC1=CC2=CC(=O)C(C)(OC(=O)c3cccs3)C(=O)C2=CN1CC(C)C (configuration not stated) = 5.09
O=C(Nc1nnc(CCOCCOCCc2nnc(NC(=O)c3ccco3)s2)s1)c1ccco1 = 8.62
COc1cccc(CNC(=O)CCC2CCCN(C(=O)c3ccc(F)c(Cl)c3)C2)c1 (configuration not stated) = 42.8
COc1ccc2nc(SCc3ccccc3)nc(C)c2c1 = 3.07
NC(=O)c1ccsc1NC(=O)c1ccco1 = 3.89

Q: Form entry - test system: Platelet-activating factor acetylhydrolase (Homo sapiens); read-out: inhibition; compound: `O=C(COc1coc(CN2CCN(c3ccccc3)CC2)cc1=O)N1CCc2ccccc21`
Result: -5.69

---

- testedOn: Platelet-activating factor acetylhydrolase (Homo sapiens) (UniProt Q13093)
- runDescription: pPAFAH enzyme inhibitors, primary screen, biochemical, fluorescence polarization, human (AID 463082);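 also: inhibitors block binding of the rhodamine activity-based probe so polarization drops; 0% = enzyme with DMSO and 100% = wells lacking pPAFAH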
- testContext: recombinant pPAFAH, FP-rhodamine probe fluorescence polarization; at 3.39 µM; stronger effect = higher value
About 4,900 (1.5%) of roughly 330,000 compounds were called active. What follows is part of a selection rich in actives, with near analogues and random picks from the rest.
measuredProperty: inhibition (%)
Respond numerically; units are % and should not be typed.

Illustrative cases are given below, each with its answer.
Cc1nc2ccccc2c(=O)n1-c1ccc(F)c(NC(=O)c2cccs2)c1 = -0.28
CCn1nc(C)c(NC(=O)/C=C/c2ccc(OC)c(COc3ccc(Br)cc3)c2)c1C = 7.11
COC(=O)C1(CCSC)NC(c2ccc(OC)cc2OC)C2C(=O)N(c3cccc(C(C)=O)c3)C(=O)C21 (stereo unspecified) = 8.06
Cc1cc(/C=N/Nc2ccc([N+](=O)[O-])cn2)c(C)n1-c1cccc(C(=O)O)c1 = 66.3
Cc1ccc(-n2c(C)cc(/C=N/Nc3ccc([N+](=O)[O-])cn3)c2C)c(C)c1 = 8.84

API: the following record is the query input.
Q: Fill in the blank: the reported inhibition of `NS(=O)(=O)c1cccc(NC(=O)CSc2nc3ccccc3n2-c2ccccc2)c1` is ____.
Result: 33.2
